system: KM12; assay: In vitro growth inhibition of compound was determined against KM12 cell lines of colon cancer; format: functional; details: Homo sapiens
measured attribute: GI50 (µM)

>>> test_value("CCN(CC)C(=S)SS(=O)(=O)c1ccc([N+](=O)[O-])cc1")
11
>>> test_value("CCN(CC)C(=S)SS(=O)(=O)c1ccccc1[N+](=O)[O-]")
12
>>> test_value("CCN(CC)C(=S)SS(=O)(=O)c1ccc(NC(C)=O)cc1")
13
>>> test_value("CCN(CC)C(=S)SS(=O)(=O)c1ccc(N)cc1")
22

----------
GI50 values for the compounds below.
system: HCT-116; test: In vitro growth inhibition of compound was determined against HCT116 cell lines of colon cancer; format: functional; conditions: Homo sapiens
measured attribute: GI50 (µM)

>>> test_value("CCN(CC)C(=S)SS(=O)(=O)c1ccc([N+](=O)[O-])cc1")
5
>>> test_value("CCN(CC)C(=S)SS(=O)(=O)c1ccccc1[N+](=O)[O-]")
15
>>> test_value("CCN(CC)C(=S)SS(=O)(=O)c1ccc(NC(C)=O)cc1")
15

----------
tested on: MDA-MB-435; assay: In vitro growth inhibition of compound was determined against MDA-MB-435 cell lines of Breast cancer; assay type: functional; conditions: Homo sapiens
measured attribute: GI50

>>> test_value("CCN(CC)C(=S)SS(=O)(=O)c1ccc(NC(C)=O)cc1")
"19 µM"
>>> test_value("CCN(CC)C(=S)SS(=O)(=O)c1ccccc1[N+](=O)[O-]")
"18 µM"
>>> test_value("CCN(CC)C(=S)SS(=O)(=O)c1ccc([N+](=O)[O-])cc1")
"23 µM"
>>> test_value("CCN(CC)C(=S)SS(=O)(=O)c1ccc(N)cc1")
"> 100 µM"

----------
test system: HCC 2998; test: In vitro growth inhibition of compound was determined against HCC2998 cell lines of colon cancer; format: functional; conditions: Homo sapiens
measured attribute: GI50 (µM)

>>> test_value("CCN(CC)C(=S)SS(=O)(=O)c1ccc(NC(C)=O)cc1")
27
>>> test_value("CCN(CC)C(=S)SS(=O)(=O)c1ccc([N+](=O)[O-])cc1")
94
>>> test_value("CCN(CC)C(=S)SS(=O)(=O)c1ccccc1[N+](=O)[O-]")
24
>>> test_value("CCN(CC)C(=S)SS(=O)(=O)c1ccc(N)cc1")
8

----------
system: MDA-MB-231; experiment: In vitro growth inhibition of compound was determined against MDA-MB-231/ATCC cell lines of Breast cancer; format: functional; conditions: Homo sapiens
GI50 values for the compounds below.
measured attribute: GI50 (µM)

>>> test_value("CCN(CC)C(=S)SS(=O)(=O)c1ccc([N+](=O)[O-])cc1")
26
>>> test_value("CCN(CC)C(=S)SS(=O)(=O)c1ccc(NC(C)=O)cc1")
20
>>> test_value("CCN(CC)C(=S)SS(=O)(=O)c1ccccc1[N+](=O)[O-]")
16

----------
GI50 values for the molecules below.
system: SNB-75; assay: In vitro growth inhibition of compound was determined against SNB-75 cell lines of CNS cancer; format: functional; conditions: Homo sapiens
measured attribute: GI50

>>> test_value("CCN(CC)C(=S)SS(=O)(=O)c1ccc(N)cc1")
"48 µM"
>>> test_value("CCN(CC)C(=S)SS(=O)(=O)c1ccc([N+](=O)[O-])cc1")
"77 µM"
>>> test_value("CCN(CC)C(=S)SS(=O)(=O)c1ccccc1C(=O)O")
"> 100 µM"
>>> test_value("CCN(CC)C(=S)SS(=O)(=O)c1ccccc1[N+](=O)[O-]")
"76 µM"
>>> test_value("CCN(CC)C(=S)SS(=O)(=O)c1ccc(NC(C)=O)cc1")
"32 µM"
